measurement protocol: DUSP6 inhibitors restoring Erk phosphorylation by chemical complementation, primary imaging in DUSP6-transfected HeLa (AID 609)
experimental parameters: HeLa MKP-3 transfected, phospho-Erk imaging KS statistic; measured here: cell density z-score; at 10 µM; cells stimulated with TPA for 15 min
Quick rule: z-score of at least 0.1 means Yes, below that means No.

Solved cases below.
compound | group
CCOC(=O)CSc1nc(N(C)C)nc(N(C)C#N)n1 | Yes
COCCOCCOCCC(=O)NC1CC2CCC1(C)C2(C)C (configuration not stated) | Yes
CC(C)NCC(O)COc1cccc2[nH]ccc12 (configuration not stated) | Yes
COc1cc(NC2=CC(=O)CC(C)(C)C2)cc(OC)c1OC | No
Cn1c(=O)oc2cc(C(=O)c3ccccc3)ccc21 | No

Task item: Test whether the compound `Cc1cc(C)n(CC(=O)n2c3c(c4ccccc42)CCCC3)n1` records z-score of 0.1 or higher.
Reply: No

Task item: Entry O=C(Nc1ccc2c(c1)OCO2)c1cc2n(n1)C(C(F)(F)F)CC(c1ccccc1)N2 (configuration not stated) please
Reply: No

Task item: # iterate: Cc1nnc2n(-c3ccccc3)c(=O)c3c4c(sc3n12)CC(C)CC4 (configuration not stated)
Reply: No

Task item: For `O=C(N(c1ccccc1)c1ccccc1)n1ccnc1` then?
Reply: No

Task item: Input CCOC(=O)CC1=C(C(=O)OCC)C(c2ccc(OC)c(OC)c2)C(C#N)=C(N)O1 (configuration not stated)
Reply: No

Task item: `CCC(=O)O[C@@H]1CC(=O)O[C@H](C)CC=CC=C[C@@H](O)[C@H](C)C[C@H](CC=O)[C@H](O[C@H]2O[C@H](C)[C@@H](O[C@H]3C[C@@](C)(O)[C@@H](OC(=O)CC)[C@H](C)O3)[C@H](N(C)C)[C@H]2O)[C@H]1OC` ?
Reply: No

Task item: Follow-up item: `C=CCOc1nc2c(c(=O)n(Cc3ccc(Cl)c(Cl)c3)c(=O)n2C)n1C`
Reply: Yes

====

measurement protocol: DUSP6 inhibitors restoring Erk phosphorylation by chemical complementation, primary imaging in DUSP6-transfected HeLa (AID 609)
experimental parameters: HeLa MKP-3 transfected, phospho-Erk imaging KS statistic; measured here: cell density z-score; at 10 µM; cells stimulated with TPA for 15 min
outcome measure: z-score
Just the number.

Example results:
compound | result
COc1cccc(C2=CC(c3ccccc3)n3nnnc3N2)c1 (stereo unspecified) | 0.0896
Cc1noc(COc2ccccc2OCC(O)CNC(C)(C)C)n1 (stereo unspecified) | -0.283
COC(=O)c1cccc(Nc2cc(C)nc(-c3ccccc3O)n2)c1 | -0.273

Task item: Would you kindly share the measured z-score for CCN(CC)CCN1C(=O)C(O)=C(C(=O)c2cccs2)C1c1ccccn1 (stereo unspecified) ?
Reply: -0.956

Task item: Also, CCCOc1ccc(/C(O)=C2/C(=O)C(=O)N(CCN(C)C)C2c2ccncc2)cc1 (stereo unspecified) please.
Reply: 1.88

Task item: Consider next the compound `Cn1c(NCCN2CCCCC2)cc(=O)n(C)c1=O` in the same way.
Reply: 1.35

====

measurement protocol: inhibitors of E-selectin induction by TNFa, primary screen, imaging, HUVEC, immunofluorescence, MLSMR starter and 10KST1 sets (AID 487);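 note: signal is fraction of cell area covered by stained E-selectin grains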
experimental parameters: HUVEC TNFalpha-induced E-selectin immunofluorescence imaging, at 2 µM; stronger effect = higher value
Grouping rule (inhibition): low range: < -80%; mid range: ≥ -80% and < -10%; high range: ≥ -10%

Worked cases, answers included:
compound | group
c1ccc(C2Nc3ccccc3-c3nc4ccccc4n32)nc1 (stereo not drawn) | mid range
OCCNC1=NCCN1 | high range
CC1CNCCN1S(=O)(=O)c1cccc2cnccc12 (stereo not drawn) | mid range
N#CCCSCc1ccc(OCC(=O)O)cc1 | low range
O/N=C(\c1ccc2c(c1)OCCO2)C1CCCCC1 | high range
COc1ccccc1-n1cnc2cc(NS(=O)(=O)c3ccccc3)ccc21 | mid range
CCOC(=O)c1c(C)n(C)c2ccc(O)c(S(=O)(=O)c3ccccc3)c12 | mid range
CC(C)(Oc1ccc(CCNC(=O)c2ccc(Cl)cc2)cc1)C(=O)O | low range

Task item: The entry to classify is `CC1(C)Cc2c(sc3nc4n(c(=N)c23)CCCCC4)CO1` ; which class holds it?
Reply: high range

Task item: Please answer likewise for `CC1(C)Cc2c(C#N)c(N3CCOCC3)nc(-c3ccccc3)c2CO1`
Reply: mid range

Task item: Similarly, `CCOC(=O)c1[nH]c2cc3c(cc2c1NC(=O)CN1CCC2(CC1)OCCO2)OCO3` ?
Reply: high range

Task item: Next entry: `CCOC(=O)c1[nH]c2ccc(Br)cc2c1NC(=O)CCN1CCC(C(=O)OCC)CC1`
Reply: low range

Task item: Same thing, different compound: `CC(=O)OCC(=O)[C@@]1(O)CC[C@H]2[C@@H]3CCC4=CC(=O)C=C[C@]4(C)[C@@]3(Cl)[C@@H](Cl)C[C@@]21C`
Reply: mid range

Task item: Also need CCOC(=O)C1CCCN(c2nc3ccccc3nc2C(C#N)C(=O)OC(C)C)C1 (stereo not drawn) , thanks.
Reply: high range

Task item: Please give the result for `CN(C)CCCN1c2ccccc2Sc2ccc(Cl)cc21` too.
Reply: mid range

Task item: Try this compound too: `CC1(C)CC(=O)C=C(NCc2ccncc2)C1`
Reply: low range

Task item: Moving on to CC1CN(C2CCN(S(=O)(=O)c3ccccc3)CC2)CC(C)O1 (stereo not drawn)
Reply: low range

Task item: Please give the result for `COC(=O)c1ccc(Cn2cnc3c(sc4nc(N5CCOCC5)c5c(c43)CCCC5)c2=O)o1` too.
Reply: low range

Task item: // repeat for N=c1ncn(CC(O)CN2CCOCC2)c2nc(N3CCOCC3)[nH]c12 (stereo not drawn) and report
Reply: low range

Task item: Would you mind doing `COc1cc([C@@H]2[C@H]3CNCC=C3C(C#N)=C(N)C2(C#N)C#N)ccc1OC(C)C` as well?
Reply: mid range

Task item: Repeat with `Cc1cc(-c2ccc(F)cc2)nc2cc(C(N)=O)nn12`
Reply: high range

Task item: Also need `C/C=C(/C(=C/C)c1ccc(O)cc1)c1ccc(O)cc1` , thanks.
Reply: mid range

Task item: Another compound: CCc1ccc(NC(=O)CSC2=C(C#N)C(c3ccco3)C3=C(CCCC3=O)N2)cc1 (stereo not drawn)
Reply: mid range
